Just for reference, patent US20220168427A1 is where these values come from.

Entries and their IC50
target: BRD4 (BD1+BD2) (Homo sapiens, UniProt O60885); construct: 1.8 μg/ml recombinant BRD4 (BD1+BD2 domains) protein; details: read-out: BRD4 Binding Potency

I'm curious: which IC50 was measured for Cc1sc2c(c1C)C(c1ccc(Cl)cc1)=N[C@@H](CC(=O)N1CCC(CCN[C@@H](C)C(=O)N[C@H](C(=O)N3CCC[C@H]3C(=O)Nc3snnc3-c3ccccc3)C3CCCCC3)CC1)c1nnc(C)n1-2 tested on BRD4 (BD1+BD2) (Homo sapiens, UniProt O60885)?
0.1 to 1 µM

---
I'm curious: which IC50 was measured for Cc1sc2c(c1C)C(c1ccc(Cl)cc1)=N[C@@H](CC(=O)N1CCC(CN3CCN(Cc4ccc(-n5c(C(N)=O)nnc5-c5ccc(O)cc5O)cc4)CC3)CC1)c1nnc(C)n1-2 tested on BRD4 (BD1+BD2) (Homo sapiens, UniProt O60885)?
< 0.1 µM

====

Record set of IC50 for target or system HSP90α (Homo sapiens, UniProt P07900).

Here is how some compounds turned out for IC50.
I'm curious: which IC50 was measured for CCc1cc(-c2nnc(C(=O)NC(C)C)n2-c2ccc(CN3CCN(CC4CCN(C(=O)C[C@@H]5N=C(c6ccc(Cl)cc6)c6c(sc(C)c6C)-n6c(C)nnc65)CC4)CC3)cc2)c(O)cc1O tested on HSP90α (Homo sapiens, UniProt P07900)?
100 to 1000 nM

I'm curious: which IC50 was measured for CCCc1cc(-c2nnc(C(=O)NCCN3CCCCC3)n2-c2ccc(CN3CCN(CC4CCN(C(=O)C[C@@H]5N=C(c6ccc(Cl)cc6)c6c(sc(C)c6C)-n6c(C)nnc65)CC4)CC3)cc2)c(O)cc1O tested on HSP90α (Homo sapiens, UniProt P07900)?
100 to 1000 nM

I'm curious: which IC50 was measured for Cc1sc2c(c1C)C(c1ccc(Cl)cc1)=N[C@@H](CCN(C)CCOc1ccc(-n3c(O)nnc3-c3cc(C(C)C)c(O)cc3O)cc1)c1nnc(C)n1-2 tested on HSP90α (Homo sapiens, UniProt P07900)?
100 to 1000 nM

Please turn your attention to the following entry.
I'm curious: which IC50 was measured for CCc1cc(-c2nnc(O)n2-c2ccc(CN3CCN(CC4CCN(C(=O)C[C@@H]5N=C(c6ccc(Cl)cc6)c6c(sc(C)c6C)-n6c(C)nnc65)CC4)CC3)cc2)c(O)cc1O [Compound 1] tested on HSP90α (Homo sapiens, UniProt P07900)?
100 to 1000 nM

====

assay: Pharmacokinetics and Tissue Distribution in the MV4-11 xenograft model; format: in vivo, mice; details: female, CB-17 SCID, mouse; lung; 5 mg/kg single intravenous dose
parameter_measured: half-life (h)
Give a bare numeral; the unit h is implied.

Record request: half-life value, item Cc1sc2c(c1C)C(c1ccc(Cl)cc1)=N[C@@H](CC(=O)N1CCC(CN3CCN(Cc4ccc(-n5c(O)nnc5-c5cc(C(C)C)c(O)cc5O)cc4)CC3)CC1)c1nnc(C)n1-2.Cl [Compound 74]
6.94

====

tested on: MV4-11 cells; assay: MV4-11 Cell Cytotoxicity Assay; assay type: cell-based, human; conditions: human, MV4-11 cells, CCK-8
parameter_measured: IC50 at 72 h

Record request: IC50 at 72 h value, item Cc1sc2c(c1C)C(c1ccc(Cl)cc1)=N[C@@H](CC(=O)N1CCC(CN3CCN(c4ccc(-n5c(O)nnc5-c5cc(C(C)C)c(O)cc5O)cc4)CC3)CC1)c1nnc(C)n1-2
< 100 nM

Record request: IC50 at 72 h value, item CCc1cc(-c2nnc(C(=O)NCCN3CCCCC3)n2-c2ccc(CN3CCN(CC4CCN(C(=O)C[C@@H]5N=C(c6ccc(Cl)cc6)c6c(sc(C)c6C)-n6c(C)nnc65)CC4)CC3)cc2)c(O)cc1O
< 100 nM

Please turn your attention to the following entry.
Record request: IC50 at 72 h value, item Cc1sc2c(c1C)C(c1ccc(Cl)cc1)=N[C@@H](CC(=O)NCCOCc1ccc(-n3c(O)nnc3-c3cc(C(C)C)c(O)cc3O)cc1)c1nnc(C)n1-2
100 to 1000 nM

====

Record set of IC50 for target or system HSP90α (Homo sapiens).

Here is how some compounds turned out for IC50.
Record request: IC50 value, item Cc1sc2c(c1C)C(c1ccc(Cl)cc1)=N[C@@H](CC(=O)N(C)CCOc1ccc(CN(C)Cc3ccc(-n4c(C(=O)NCC(F)(F)F)nnc4-c4cc(C(C)C)c(O)cc4O)cc3)cc1)c1nnc(C)n1-2
> 1000 nM

Record request: IC50 value, item Cc1sc2c(c1C)C(c1ccc(Cl)cc1)=N[C@@H](CC(=O)NCc1ccc(-n3c(S)nnc3-c3cc(C(C)C)c(O)cc3O)cc1)c1nnc(C)n1-2
100 to 1000 nM

Record request: IC50 value, item Cc1sc2c(c1C)C(c1ccc(Cl)cc1)=N[C@@H](CC(=O)N1CCC(CN3CCN(Cc4ccc(-n5c(O)nnc5-c5cc(C(C)C)c(O)cc5O)cc4)CC3)CC1)c1nnc(C)n1-2 [Compound 103, acetate]
100 to 1000 nM

---
Record request: IC50 value, item Cc1sc2c(c1C)C(c1ccc(Cl)cc1)=N[C@@H](CC(=O)NCCOCCN[C@@H](C)C(=O)NC(C(=O)N1CCC[C@H]1C(=O)Nc1snnc1-c1ccccc1)C1CCCCC1)c1nnc(C)n1-2 (stereo in doubt)
> 1000 nM

Record request: IC50 value, item Cc1sc2c(c1C)C(c1ccc(Cl)cc1)=N[C@@H](CC(=O)N1CCC(Cc3ccc(-n4c(O)nnc4-c4cc(C(C)C)c(O)cc4O)cc3)CC1)c1nnc(C)n1-2
100 to 1000 nM

====

Entries and their pIC50
biological target: BRD4 (BD1+BD2) (Homo sapiens); construct: 1.8 μg/ml recombinant BRD4 (BD1+BD2 domains) protein; details: read-out: BRD4 Binding Potency
pIC50: −log10 of the molar value.

Record request: pIC50 value, item Cc1sc2c(c1C)C(c1ccc(Cl)cc1)=N[C@@H](CC(=O)NCCOc1ccc(-n3c(S)nnc3-c3cc(C(C)C)c(O)cc3O)cc1)c1nnc(C)n1-2
< 6.00

---
Record request: pIC50 value, item Cc1sc2c(c1C)C(c1ccc(Cl)cc1)=N[C@@H](CC(=O)N1CCC(CN3CCN(Cc4ccc(-n5c(O)nnc5-c5cc(C(C)C)c(O)cc5O)cc4F)CC3)CC1)c1nnc(C)n1-2
< 6.00

Record request: pIC50 value, item CCc1cc(-c2nnc(C(=O)NCCN(CC)CC)n2-c2ccc(CN3CCN(CC4CCN(C(=O)C[C@@H]5N=C(c6ccc(Cl)cc6)c6c(sc(C)c6C)-n6c(C)nnc65)CC4)CC3)cc2)c(O)cc1O
> 7.00

Record request: pIC50 value, item Cc1sc2c(c1C)C(c1ccc(Cl)cc1)=N[C@@H](CC(=O)NCCOCCN1CCN(Cc3ccc(-n4c(O)nnc4-c4cc(C(C)C)c(O)cc4O)cc3)CC1)c1nnc(C)n1-2
6.00 to 7.00

====

Molecular target: BRD4 (BD1+BD2) (Homo sapiens, UniProt O60885)
Construct: 1.8 μg/ml recombinant BRD4 (BD1+BD2 domains) protein
Conditions: read-out: BRD4 Binding Potency
Procedure: A master mix was prepared with assay buffer, 1.8 μg/ml recombinant BRD4 (BD1+BD2 domains) protein, and 200-fold dilutions of Tb-labeled donor and dye-labeled acceptor. […] Then 10 μl of master mix was added per well, mixed by brief shaking, incubated at 25° C. for 2 hr and fluorescence was measured on an EnVision Plate Reader. The 665 nm/615 nm ratio was calculated from EnVision raw data. Data were normalized using whole-plate averages of “positive” and “negative” readings. […]
parameter_measured: IC50

Here is how some compounds turned out for IC50.
Record request: IC50 value, item Cc1sc2c(c1C)C(c1ccc(Cl)cc1)=N[C@@H](CC(=O)NCCc1ccc(-n3c(O)nnc3-c3cc(C(C)C)c(O)cc3O)cc1)c1nnc(C)n1-2 [Compound 39]
0.1 to 1 µM

Record request: IC50 value, item CCN(CC)CCNC(=O)c1nnc(-c2cc(C(C)C)c(O)cc2O)n1-c1ccc(CN2CCN(CC3CCN(C(=O)C[C@@H]4N=C(c5ccc(Cl)cc5)c5c(sc(C)c5C)-n5c(C)nnc54)CC3)CC2)cc1 [Compound 118, trifluoroacetic acid]
< 0.1 µM

Record request: IC50 value, item Cc1sc2c(c1C)C(c1ccc(Cl)cc1)=N[C@@H](CC(=O)N1CCC(CN3CCC(Cc4ccc(-n5c(O)nnc5-c5cc(C(C)C)c(O)cc5O)cc4)CC3)CC1)c1nnc(C)n1-2 [Compound 94, trifluoroacetic acid]
0.1 to 1 µM

---
Record request: IC50 value, item CCc1cc(-c2nnc(C(=O)NCC(F)(F)F)n2-c2ccc(CN3CCN(CC4CCN(C(=O)C[C@@H]5N=C(c6ccc(Cl)cc6)c6c(sc(C)c6C)-n6c(C)nnc65)CC4)CC3)cc2)c(O)cc1O [Compound 14, trifluoroacetic acid]
> 1 µM

Record request: IC50 value, item CCCc1cc(C(=O)N2Cc3ccc(CN4CCN(C(=O)C[C@@H]5N=C(c6ccc(Cl)cc6)c6c(sc(C)c6C)-n6c(C)nnc65)CC4)cc3C2)c(O)cc1O [Compound 145]
> 1 µM
